Target: RANBP2 2924-3050 Ran_BP1 (domain begin residue: 2924, domain end residue: 3050)
Experiment: phage ELISA signal ratio (GST-PRM binding over GST background); higher = stronger binding of peptide-phage to the PRM
For each record, write down the corresponding phage ELISA signal ratio.
Answers are plain numbers.

Solved cases (3 shown):
EWDWPSDHSWWEYIQH: 8.48
LSTDFLQMEHFWNQQF: 3.07
QDWWETALPQEPWHVV: 22.7

If you can, please state the reported phage ELISA signal ratio value of FDVPLPLEHDWWTSWV .
3.39
